Quick reference for IC50 among some compounds
biological target: CYP2C19 (Homo sapiens); construct: from tissue; host or cells: human liver microsomes; test: CYP inhibition assay, human liver microsomes, substrate S-mephenytoin; assay type: in vitro ADME; conditions: human liver microsomes, 10 min incubation, LC-MS/MS; read-out: CYP Inhibition Activity (IC50/nM) CYP2C19
Sequence (P33261 whole entry): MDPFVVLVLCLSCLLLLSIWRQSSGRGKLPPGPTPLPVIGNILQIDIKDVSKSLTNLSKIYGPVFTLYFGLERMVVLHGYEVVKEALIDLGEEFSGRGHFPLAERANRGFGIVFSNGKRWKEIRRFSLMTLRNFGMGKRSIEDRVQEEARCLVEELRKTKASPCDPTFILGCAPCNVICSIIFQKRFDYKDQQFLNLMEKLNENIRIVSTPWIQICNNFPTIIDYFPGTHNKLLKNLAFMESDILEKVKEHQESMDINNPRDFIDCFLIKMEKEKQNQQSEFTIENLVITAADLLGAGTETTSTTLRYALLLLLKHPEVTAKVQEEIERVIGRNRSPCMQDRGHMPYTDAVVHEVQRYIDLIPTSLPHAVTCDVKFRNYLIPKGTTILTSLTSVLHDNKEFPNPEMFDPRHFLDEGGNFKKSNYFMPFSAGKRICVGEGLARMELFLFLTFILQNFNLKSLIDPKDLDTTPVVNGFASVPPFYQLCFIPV
Output spec: scalar in nM, unitless text.

| compound | unit-of-measure | recorded-number |
| --- | --- | --- |
| CNC(=O)C1(C)CCN(c2ccc(C(F)(F)F)cc2NC(=O)c2ccc(C3CCOCC3)o2)CC1 [Example 76] | nM | 4250 |
| CC1(O)CCN(c2ccc(C(F)(F)F)cc2NC(=O)c2ccccn2)CC1 [Example 1] | nM | 16000 |
| CC1(O)CCCN(c2ccc(Cl)cc2NC(=O)c2ccc(-c3ccncc3)o2)CC1 (racemic) [Example 38] | nM | 7500 |

// next entry
Hello, I am looking for reported IC50 with CYP2C19 (Homo sapiens) for CC1(O)CCN(c2ccc(Cl)cc2NC(=O)c2ccccn2)CC1 [Example 2] . Could you help?
18200
